// provenance: PubChem BioAssay (NCI)

Tested on: TK-10 renal
Experiment: NCI tumour cell line growth inhibition, 48 h
Measured TGI values are reported for all entries that follow.

// known answers, use as guide
Compound: CCN(CCO)CCCC(C)Nc1ccnc2cc(Cl)ccc12 (stereo not drawn)
TGI: > 100 µM
//
Compound: COc1ccc(/C=C2/SC(=Nc3ccccc3)N(NC(=O)Cc3ccccc3)C2=O)c(OC)c1
TGI: > 100 µM

Moving on to another compound below.
Given the compound `CN[C@@H](Cc1cccc2ccccc12)C(=O)N[C@@H](CC(C)C)B(O)O` , write its reported TGI.
0.0821 µM

###

Test system: OVCAR-4 ovarian
Assay: NCI tumour cell line growth inhibition, 48 h
Measured TGI values are reported for all entries that follow.

Molecule: O=C1c2cc3c(cc2-c2c1c1ccc(F)cc1c(=O)n2C[C@H](O)[C@H](O)[C@H](O)CO)OCO3
Property: TGI
Measurement: 34.9 µM

Molecule: CCOC(=O)[C@@]1(C(C)=O)CC(C)=C(C)C[S@]1=O
Property: TGI
Measurement: > 100 µM

Molecule: CCOc1cc(C2SCC(=O)N2c2ccc3c(c2)Oc2c(Cl)c4c(c(Cl)c2=N3)Oc2cc(N3C(=O)CSC3c3ccc(O)c(OCC)c3)ccc2N=4)ccc1O (configuration not stated)
Property: TGI
Measurement: > 100 µM

Molecule: COC(=O)[C@@H]1C[C@]2(Br)c3ccccc3N(S(=O)(=O)c3ccccc3)[C@@H]2N1C(=O)OC
Property: TGI
Measurement: > 100 µM

Molecule: Cc1cccc(N=Cc2ccc(N(CCC#N)S(=O)(=O)c3ccccc3)cc2C)c1
Property: TGI
Measurement: > 100 µM

Molecule: CC1=C[C@H]([C@H]2C=C(C)C(C(N)=O)=CN2Cc2c(Cl)cccc2Cl)N(Cc2c(Cl)cccc2Cl)C=C1C(N)=O
Property: TGI
Measurement: > 75 µM

Molecule: c1cc(C2=NCCO2)c2ccsc2c1
Property: TGI
Measurement: > 100 µM

Molecule: O=C(O)/C=C/c1ccc(OS(=O)(=O)O)cc1
Property: TGI
Measurement: > 100 µM

Given the molecule `COc1cc2c3c(n(CCCn4cncn4)c(=O)c2cc1OC)-c1cc2c(cc1C3=O)OCO2` , write its reported TGI.
> 100 µM

Given the molecule `CS(=O)(=O)NNS(=O)(=O)c1ccc(F)cc1` , write its reported TGI.
> 100 µM

Given the molecule `CCCCc1n(Cc2ccc3ccccc3n2)cc[n+]1Cc1ccc2ccccc2n1` , write its reported TGI.
13.5 µM

Given the molecule `S=C1SCN(Cc2ccccc2)CN1Cc1ccccc1` , write its reported TGI.
27.6 µM

Given the molecule `O=C1NC(=O)C(C(c2ccc([N+](=O)[O-])cc2)C2C(=O)NC(=O)NC2=O)C(=O)N1` , write its reported TGI.
> 100 µM

Given the molecule `O=C(Nc1ccccc1)c1cc(S(=O)(=O)N2CCNC2=O)c(S)cc1Cl` , write its reported TGI.
> 100 µM

Given the molecule `C1=CC=C2NCCc3cccc(c3)CCNC3=CC=CC=CC3=NCCCCCCN=C2C=C1` , write its reported TGI.
39 µM

Given the molecule `O=C1NC(=S)NC(=O)C1=CC1CC1` , write its reported TGI.
> 100 µM

Given the molecule `Cc1c(C(=O)Nc2ccccc2)nnn1-c1ccnc2cc(C(F)(F)F)ccc12` , write its reported TGI.
> 100 µM

###

Measured TGI values are reported for all entries that follow.
Tested on: MALME-3M melanoma
Test: NCI tumour cell line growth inhibition, 48 h
Numeric only. Scale: µM

Molecule Smiles: COc1ccc2c(c1)C(=O)c1c-2c(N2CCN(C(=O)CCNCCNCCN)CC2)nc2ccccc12
TGI, µM: 6.9

Moving on to another molecule below.
Given the molecule `O=C1/C(=C/c2ccc(F)cc2)CN(C(=O)C(Cl)Cl)C/C1=C\c1ccc(F)cc1` , write its reported TGI.
0.528

###

System: LOX IMVI melanoma
Assay: NCI tumour cell line growth inhibition, 48 h
Property: TGI

Molecule: O=C1c2ccccc2C(=O)c2c1oc1c2c(=O)[nH]c2ccc(Cl)cc21
Measured Target: LOX IMVI melanoma
TGI: 1.3 µM
--
Molecule: CC(C)=NOC(=O)OC[C@H]1O[C@@H](n2cnc3c(N)ncnc32)C(O)C1O (stereo partly drawn)
Measured Target: LOX IMVI melanoma
TGI: > 100 µM

Given the molecule `c1cc(C2=NCCO2)c2ccsc2c1` , write its reported TGI.
> 100 µM

Given the molecule `O=c1oc2ccc(Cl)cc2c(=O)n1-c1ccc(F)cc1F` , write its reported TGI.
12.1 µM

Given the molecule CCO[C@H]1O[C@@H]2OC3(C)CCC4[C@H](C)CCC([C@H]1C)[C@]42OO3 (stereo partly drawn) , write its reported TGI.
> 100 µM

Given the molecule `CC(=O)NCc1c(C(N)=O)ncn1Cc1ccccc1` , write its reported TGI.
> 100 µM

Given the molecule `N#CC1(C#N)[C@@H]2CCC=C(Sc3ccccc3)[C@@H]21` , write its reported TGI.
36.8 µM

Given the molecule `Cn1ccc(=NS(=O)(=O)c2ccccc2)cc1` , write its reported TGI.
> 100 µM

###

System: EKVX NSCLC
Assay: NCI tumour cell line growth inhibition, 48 h
Property: TGI

// known answers, use as guide
Molecule: COn1oc(=O)c2ccccc21
Measured Target: EKVX NSCLC
Property: TGI
Measurement: > 100 µM
--
Molecule: CC(=O)Nn1cnc(C(=N)C#N)c1N
Measured Target: EKVX NSCLC
Property: TGI
Measurement: > 100 µM
--
Molecule: O=C(Nc1n[nH]c2nc(-c3ccc(O)cc3)c(Br)cc12)C1CC1
Measured Target: EKVX NSCLC
Property: TGI
Measurement: 19 µM
--
Molecule: O=C1c2ccccc2C(=O)c2c1oc1c2c(=O)[nH]c2ccc(Cl)cc21
Measured Target: EKVX NSCLC
Property: TGI
Measurement: 2.44 µM
--
Molecule: CC1=C[C@H]([C@H]2C=C(C)C(C(N)=O)=CN2Cc2c(Cl)cccc2Cl)N(Cc2c(Cl)cccc2Cl)C=C1C(N)=O
Measured Target: EKVX NSCLC
Property: TGI
Measurement: > 75 µM
--
Molecule: Cc1nc(-n2nc(-c3ccccc3)cc2-c2ccccc2)sc1C(=O)/C=C/c1ccc([N+](=O)[O-])cc1
Measured Target: EKVX NSCLC
Property: TGI
Measurement: > 100 µM
--
Molecule: O=C(O[C@H]1[C@@H]2C=CO[C@@H](OC3OC(CO)C(O)C(O)C3O)[C@@H]2[C@@]2(CO)O[C@@H]12)c1ccc(O)c(O)c1 (some centres undefined)
Measured Target: EKVX NSCLC
Property: TGI
Measurement: > 100 µM
--
Molecule: O=C(CC1(O)C(=O)Nc2ccc([N+](=O)[O-])cc21)c1ccncc1 (centres undefined)
Measured Target: EKVX NSCLC
Property: TGI
Measurement: > 100 µM

Given the molecule `C#CCOC(=O)/C=C/C(=O)Oc1ccc2c(C)cc(=O)oc2c1` , write its reported TGI.
> 100 µM

Given the molecule `CC[O-].CC[O-].O=C([CH-]C(=O)c1ccccc1)CCCCCCC(=O)[CH-]C(=O)c1ccccc1.[Ti+4]` , write its reported TGI.
> 100 µM

Given the molecule `CCCS(=O)(=O)Nc1cccc(Nc2ncnc3cc(NC(=O)CCl)ccc23)c1Cl` , write its reported TGI.
12.3 µM

###

System: A549 NSCLC
Assay: NCI tumour cell line growth inhibition, 48 h
Property: TGI

Molecule: CN=c1ssc(=S)n1C(C)C
TGI: > 100 µM

Given the molecule Cc1ccc(N=C2OP(=O)(Nc3ccc(C)cc3)Oc3ccccc32)cc1 (stereo not drawn) , write its reported TGI.
> 100 µM

Given the molecule `COc1ccccc1NC(=O)C1=C(C)NC(C)=C(C(=O)Nc2ccccc2OC)C1c1ccccc1Cl` , write its reported TGI.
> 100 µM

###

System: UACC-257 melanoma
Test: NCI tumour cell line growth inhibition, 48 h; in the data active means GI50 below about 0.43 µM; inactive means the rest
# valid calls are active, inactive; nothing else

GET /call?item= `O=C1c2ccccc2C(=O)c2c1oc1c2c(=O)[nH]c2ccc(Cl)cc21` returns the recorded outcome of this test.
inactive

GET /call?item= `CC[C@]12C=CCN3CC[C@@]4(c5ccc(OC)cc5N(C)[C@H]4[C@@](O)(C(=O)OC)[C@@H]1OC(=O)CCC(=O)O[C@H]1CC[C@H]4[C@@H]5CC[C@H]6CC(=O)CC[C@]6(C)[C@H]5CC[C@]14C)[C@@H]32` returns the recorded outcome of this test.
inactive

GET /call?item= `COc1cc2c(c(OC)c1OC)-c1c(c3ccc([N+](=O)[O-])cc3c(=O)n1CCCBr)C2=O` returns the recorded outcome of this test.
inactive

GET /call?item= `COc1cc2c(cc1O)c(=O)n(CCN(C)C)c1c3cc4c(cc3ncc21)OCO4` returns the recorded outcome of this test.
active

###

Test system: EKVX NSCLC
Assay: NCI tumour cell line growth inhibition, 48 h
Measured TGI values are reported for all entries that follow.

Compound: CSc1nc(NC2OCC(OC(C)=O)C(OC(C)=O)C2OC(C)=O)c2c(n1)OCC2=O (centres undefined)
Property: TGI
Measurement: > 100 µM

Compound: CC(C)(C)OC(=O)NCCC1CNc2ccccc21 (centres undefined)
Property: TGI
Measurement: > 100 µM

Compound: CCO[C@H]1O[C@@H]2OC3(C)CCC4[C@H](C)CCC([C@H]1C)[C@]42OO3 (some centres undefined)
Property: TGI
Measurement: > 100 µM

Compound: O=C(c1ccccc1)C1OC1C(=O)c1ccccc1 (centres undefined)
Property: TGI
Measurement: > 100 µM

Compound: O=S1(=O)c2ccccc2N2C(c3ccccc3)=NOC2(c2ccccc2)CC1c1ccc(Br)cc1 (centres undefined)
Property: TGI
Measurement: > 100 µM

Given the compound CC(=O)OC1=C2CC[C@@H]3C(CC[C@@]4(C)C3CC[C@@H]4OC(C)=O)[C@@]2(C)CC(C#N)C1=O (some centres undefined) , write its reported TGI.
> 100 µM

Given the compound `O=C1NC(=NCc2ccc(F)cc2)N/C1=C\c1ccccc1Cl` , write its reported TGI.
58.2 µM

Given the compound `OCCN(CCO)c1nc(N2CCCCC2)c2nc(N(CCO)CCO)nc(N3CCCCC3)c2n1` , write its reported TGI.
> 100 µM

Given the compound `COc1cc(NS(C)(=O)=O)ccc1Cc1c2ccccc2nc2ccccc12` , write its reported TGI.
4.24 µM
